Measured Surface Tension accompanies every entry in the list below.
assayExplanation: Fluid solvent properties
Enter your answer as a number in dyn/cm; do not include the unit.

Use the examples below as a reference point.
compound	Surface Tension (dyn/cm)
COC(=O)C(C)(C)C [MP, methyl pivalate]	23.8
CC(C)=O	22.3

Entry COC(=O)OC [DMC, dimethyl carbonate] , Surface Tension reported as 29

====

assayExplanation: in vivo
LD50 by entry:
Give the quantity in mg/kg, number only.

molecule	LD50 (mg/kg)
CC(C)=O	5800

Please find the next molecule below.
Sure, the documented LD50 for COC(=O)OC [DMC, dimethyl carbonate] is 13000
